- tested system: COX-2 (Homo sapiens)
- Sequence (P35354 18-604): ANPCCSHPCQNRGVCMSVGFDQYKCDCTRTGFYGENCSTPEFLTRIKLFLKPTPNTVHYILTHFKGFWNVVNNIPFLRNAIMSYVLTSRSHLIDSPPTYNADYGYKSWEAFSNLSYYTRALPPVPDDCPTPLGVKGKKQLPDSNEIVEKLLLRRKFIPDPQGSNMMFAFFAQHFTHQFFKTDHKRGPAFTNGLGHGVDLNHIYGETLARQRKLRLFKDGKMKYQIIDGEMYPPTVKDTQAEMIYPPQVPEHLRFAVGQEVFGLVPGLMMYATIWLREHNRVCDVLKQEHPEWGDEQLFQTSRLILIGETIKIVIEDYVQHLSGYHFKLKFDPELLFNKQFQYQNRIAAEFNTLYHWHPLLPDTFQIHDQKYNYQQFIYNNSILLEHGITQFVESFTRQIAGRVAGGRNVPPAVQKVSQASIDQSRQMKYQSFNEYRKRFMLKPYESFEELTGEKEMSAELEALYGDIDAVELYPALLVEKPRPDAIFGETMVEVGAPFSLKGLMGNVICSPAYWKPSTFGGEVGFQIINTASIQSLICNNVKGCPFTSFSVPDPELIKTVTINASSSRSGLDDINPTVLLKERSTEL
- assay name: TLC assay of cyclooxygenase inhibition, purified human COX-2
- Format: biochemical
property label: pIC50
Notebook: values listed as pIC50 are -log10 of the concentration (mol/L).

Query: # query: pIC50 | item CCn1nccc1NC(=O)Cc1c(C)n(C(=O)c2ccc(Cl)cc2)c2ccc(OC)cc12 [Compound 49] | system: COX-2 (Homo sapiens)
Response: 6.15
